# System: Hs294T (human melanoma)
# PROCEDURE_SUMMARY: cells
# Type: cell-based
# CONDITION_DESCRIPTION: selectivity coefficient vs normal BALB/3T3 cells
Catalogue of compounds with associated Hs294T SI
Give a plain numeric answer without units written out.

Qu. In one line, give reported Hs294T SI of the entry "CC[C@@H](C(=O)[C@@H](C)[C@@H](O)[C@H](C)[C@@H]1O[C@@H]([C@@H](CC)C(=O)O)CC[C@@H]1C)[C@H]1O[C@]2(C=C[C@@H](NC(=O)NCc3ccc(F)cc3)[C@]3(CC[C@@](C)([C@H]4CC[C@](O)(CC)[C@H](C)O4)O3)O2)[C@H](C)C[C@@H]1C" .
Ans. 0.7

Qu. In one line, give reported Hs294T SI of the entry "CC[C@@H](C(=O)[C@@H](C)[C@@H](O)[C@H](C)[C@@H]1O[C@@H]([C@@H](CC)C(=O)O)CC[C@@H]1C)[C@H]1O[C@]2(C=C[C@@H](NC(=O)Nc3ccc(F)cc3)[C@]3(CC[C@@](C)([C@H]4CC[C@](O)(CC)[C@H](C)O4)O3)O2)[C@H](C)C[C@@H]1C" .
Ans. 2.3

Qu. In one line, give reported Hs294T SI of the entry "CC[C@@H](C(=O)[C@@H](C)[C@@H](O)[C@H](C)[C@@H]1O[C@@H]([C@@H](CC)C(=O)O)CC[C@@H]1C)[C@H]1O[C@]2(C=C[C@@H](NC(=O)Nc3ccc(F)cc3F)[C@]3(CC[C@@](C)([C@H]4CC[C@](O)(CC)[C@H](C)O4)O3)O2)[C@H](C)C[C@@H]1C" .
Ans. 0.3

Qu. In one line, give reported Hs294T SI of the entry "CC[C@@H](C(=O)[C@@H](C)[C@@H](O)[C@H](C)[C@@H]1O[C@@H]([C@@H](CC)C(=O)O)CC[C@@H]1C)[C@H]1O[C@]2(C=C[C@@H](NC(=S)Nc3cc(C(F)(F)F)cc(C(F)(F)F)c3)[C@]3(CC[C@@](C)([C@H]4CC[C@](O)(CC)[C@H](C)O4)O3)O2)[C@H](C)C[C@@H]1C" .
Ans. 0.9

Qu. In one line, give reported Hs294T SI of the entry "CC[C@@H](C(=O)[C@@H](C)[C@@H](O)[C@H](C)[C@@H]1O[C@@H]([C@@H](CC)C(=O)O)CC[C@@H]1C)[C@H]1O[C@]2(C=C[C@@H](NC(=O)Nc3ccccc3C(F)(F)F)[C@]3(CC[C@@](C)([C@H]4CC[C@](O)(CC)[C@H](C)O4)O3)O2)[C@H](C)C[C@@H]1C" .
Ans. 1.2

---

# System: KG-1 (human acute myeloid leukaemia)
# PROCEDURE_SUMMARY: In vitro cytotoxicity, MTT assay, KG-1
# Type: cell-based
# CONDITION_DESCRIPTION: Homo sapiens; 72 h with compound, MTT; n/a = non-active compound
Catalogue of compounds with associated pIC50
Value format note: pIC50 is -log10 of concentration (mol/L); just state the number.

Solved cases below.
COMPOUND	pIC50
CC[C@@H](C(=O)[C@@H](C)[C@@H](O)[C@H](C)[C@@H]1O[C@@H]([C@@H](CC)C(=O)O)CC[C@@H]1C)[C@H]1O[C@]2(C=C[C@@H](NC(=O)NCCc3ccccc3)[C@]3(CC[C@@](C)([C@H]4CC[C@](O)(CC)[C@H](C)O4)O3)O2)[C@H](C)C[C@@H]1C [FLC-00362-1]	7.43
CC[C@@H](C(=O)[C@@H](C)[C@@H](O)[C@H](C)[C@@H]1O[C@@H]([C@@H](CC)C(=O)O)CC[C@@H]1C)[C@H]1O[C@]2(C=C[C@@H](NC(=O)Nc3ccc(OC)cc3)[C@]3(CC[C@@](C)([C@H]4CC[C@](O)(CC)[C@H](C)O4)O3)O2)[C@H](C)C[C@@H]1C [FLC-00371-1]	7.66

Qu. Fill: pIC50 (KG-1 (human acute myeloid leukaemia)) for this compound CC[C@@H](C(=O)[C@@H](C)[C@@H](O)[C@H](C)[C@@H]1O[C@@H]([C@@H](CC)C(=O)O)CC[C@@H]1C)[C@H]1O[C@]2(C=C[C@@H](NC(=O)NC3CCCCC3)[C@]3(CC[C@@](C)([C@H]4CC[C@](O)(CC)[C@H](C)O4)O3)O2)[C@H](C)C[C@@H]1C [FLC-00384-1]
Ans. 7.71

The origin of these recorded values is patent US20240294541A1.
